target: UniProt:Q5EGZ1; assay: ACE-2 Competitive Substrate Assay, rat ACE-2; type: biochemical; settings: Ki class; compounds tested in 5% DMSO, 12 concentrations
Sequence (Q5EGZ1 18-805): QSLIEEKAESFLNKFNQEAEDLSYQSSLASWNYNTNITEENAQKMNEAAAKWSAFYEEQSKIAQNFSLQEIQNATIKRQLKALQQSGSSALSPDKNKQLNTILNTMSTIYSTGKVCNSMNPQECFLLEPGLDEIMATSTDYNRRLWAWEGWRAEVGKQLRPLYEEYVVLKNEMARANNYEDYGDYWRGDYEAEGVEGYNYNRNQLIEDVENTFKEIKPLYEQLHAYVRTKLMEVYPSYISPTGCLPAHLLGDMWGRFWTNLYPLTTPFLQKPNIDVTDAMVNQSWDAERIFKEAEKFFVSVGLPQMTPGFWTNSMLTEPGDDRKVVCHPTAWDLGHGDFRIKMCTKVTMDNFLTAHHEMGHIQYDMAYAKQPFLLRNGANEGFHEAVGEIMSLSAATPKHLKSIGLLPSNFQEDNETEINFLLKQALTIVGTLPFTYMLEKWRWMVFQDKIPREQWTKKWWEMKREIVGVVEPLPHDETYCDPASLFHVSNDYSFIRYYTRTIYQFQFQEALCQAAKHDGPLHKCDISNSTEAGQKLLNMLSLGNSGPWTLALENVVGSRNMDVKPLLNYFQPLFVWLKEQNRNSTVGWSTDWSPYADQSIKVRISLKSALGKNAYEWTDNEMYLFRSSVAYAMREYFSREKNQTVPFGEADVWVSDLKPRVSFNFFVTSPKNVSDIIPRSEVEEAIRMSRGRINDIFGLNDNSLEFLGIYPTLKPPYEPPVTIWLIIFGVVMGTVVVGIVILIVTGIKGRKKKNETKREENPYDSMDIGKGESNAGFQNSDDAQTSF
pKi: −log10 of the molar value.
PROPERTY MEASURED: pKi

Worked examples follow.
[
  {
    "COMPOUND": "CC(C)CC(N[C@H](Cc1c[nH]cn1)C(=O)O)C(=O)O (some centres unmarked) [BB]",
    "pKi": "< 6.30"
  },
  {
    "COMPOUND": "CCC(C)C(NC(Cc1cncn1Cc1ccccc1)C(=O)O)C(=O)O (single isomer, unassigned) [GC]",
    "pKi": "6.30 to 7.00"
  },
  {
    "COMPOUND": "COC(=O)[C@H](Cc1c[nH]cn1)NC(CC(C)C)C(=O)O (single isomer, unassigned) [CT]",
    "pKi": "< 6.30"
  },
  {
    "COMPOUND": "CC(C)CC(N[C@H](Cc1cncn1C)C(=O)O)C(=O)O (some centres unmarked) [CB]",
    "pKi": "< 6.30"
  },
  {
    "COMPOUND": "CC(C)C[C@H](N[C@H](CCc1ccccc1)C(=O)O)C(=O)O [E]",
    "pKi": "< 6.30"
  }
]

Here is the next item to consider.
Please fill in: pKi reported for CC(C)CC(N[C@H](CN(C)Cc1ccccc1)C(=O)O)C(=O)O (stereo in doubt) [FU] = < 6.30

###

target: ACE-2 (Homo sapiens, UniProt Q9BYF1); construct: a stop codon inserted after the serine immediately preceding the transmembrane domain; made in house; host or cells: CHO K1 cells (transient transfection, purified from conditioned medium); assay: ACE-2 Competitive Substrate Assay (ACS Assay); type: biochemical; conditions: Table 3, very good ACE-2 inhibiting compounds; species not given; read-out: ACE-2 Activity, Ki
Sequence (Q9BYF1 18-740 limits assumed): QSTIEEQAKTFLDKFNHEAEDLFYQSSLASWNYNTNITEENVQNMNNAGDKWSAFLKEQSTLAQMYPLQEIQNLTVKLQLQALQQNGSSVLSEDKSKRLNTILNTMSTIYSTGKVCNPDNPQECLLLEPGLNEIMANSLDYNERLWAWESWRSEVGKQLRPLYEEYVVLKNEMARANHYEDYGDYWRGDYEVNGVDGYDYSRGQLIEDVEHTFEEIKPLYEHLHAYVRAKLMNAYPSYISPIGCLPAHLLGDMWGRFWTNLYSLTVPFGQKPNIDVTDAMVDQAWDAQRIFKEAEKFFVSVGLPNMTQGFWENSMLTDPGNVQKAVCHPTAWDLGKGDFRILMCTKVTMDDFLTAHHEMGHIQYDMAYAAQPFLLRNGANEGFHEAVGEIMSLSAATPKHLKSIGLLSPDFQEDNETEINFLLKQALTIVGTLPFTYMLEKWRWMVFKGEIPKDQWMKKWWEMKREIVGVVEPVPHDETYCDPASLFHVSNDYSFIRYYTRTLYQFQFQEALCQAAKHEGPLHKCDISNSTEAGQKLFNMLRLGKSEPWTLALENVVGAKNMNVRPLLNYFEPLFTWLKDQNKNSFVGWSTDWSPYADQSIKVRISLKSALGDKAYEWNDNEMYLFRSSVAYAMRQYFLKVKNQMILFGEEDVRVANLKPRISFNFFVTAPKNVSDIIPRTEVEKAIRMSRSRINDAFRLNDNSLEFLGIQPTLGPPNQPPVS
Some compounds, each annotated with its measured Ki.

Known results for compounds:
[
  {
    "COMPOUND": "CCOc1ccnc(-c2ccc(C[C@H](N[C@@H](CC(C)C)C(=O)O)C(=O)O)cc2)c1Cl",
    "Ki": "50 to 100 nM"
  },
  {
    "COMPOUND": "CC(C)C[C@H](N[C@@H](Cc1csc(-c2ccc3c(c2)CCO3)n1)C(=O)O)C(=O)O",
    "Ki": "50 to 100 nM"
  },
  {
    "COMPOUND": "COC(=O)[C@H](Cc1cncn1Cc1cc(Cl)cc(Cl)c1)N[C@@H](CC(C)C)C(=O)O",
    "Ki": "< 50 nM"
  }
]

Consider CC(C)C[C@H](N[C@@H](Cn1ccn(Cc2cc(F)cc(F)c2)c1=O)C(=O)O)C(=O)O . Its measured Ki is 50 to 100 nM

Field Ki (entry CC(C)CC(N[C@@H](Cc1cncn1Cc1ccc(OC(F)(F)F)cc1)C(=O)O)C(=O)O (single isomer, unassigned) ) reads 50 to 100 nM

###

molecular target: ACE-2 (Homo sapiens); construct: a stop codon inserted after the serine immediately preceding the transmembrane domain; made in house; host or cells: CHO K1 cells (transient transfection, purified from conditioned medium); assay: ACE-2 Competitive Substrate Assay (ACS Assay); type: biochemical; settings: Ki class; compounds tested in 5% DMSO, 12 compound concentrations, Ki=Kiapp/(1+[S]/Km); read-out: Human ACE-2 Activity
Listed next: entries and their corresponding Ki.

Examples from the recorded data:
[
  {
    "COMPOUND": "CC(C)CC(N[C@@H](Cc1cncn1Cc1cc(Cl)ccc1Cl)C(=O)O)C(=O)O (single isomer, unassigned)",
    "Ki": "< 100 nM"
  },
  {
    "COMPOUND": "CC(C)CC(N[C@@H](Cc1csc(-c2ccccc2)n1)C(=O)O)C(=O)O (stereo partly shown)",
    "Ki": "100 to 500 nM"
  }
]

CC(C)C[C@H](N[C@@H](Cc1csc(-c2cc(Cl)cc(Cl)c2)n1)C(=O)O)C(=O)O yielded Ki of 100 to 500 nM

Looking up Cc1cccc(Cn2cncc2C[C@H](NC(CC(C)C)C(=O)O)C(=O)O)c1 (single isomer, unassigned) [HP] , I see its Ki listed as > 500 nM

###

target: ACE-2 (Homo sapiens, UniProt Q9BYF1); construct: a stop codon inserted after the serine immediately preceding the transmembrane domain; made in house; host or cells: CHO K1 cells (transient transfection, purified from conditioned medium); experiment: ACE-2 Competitive Substrate Assay (ACS Assay); format: biochemical; settings: Ki class; compounds tested in 5% DMSO, 12 concentrations; read-out: Human ACE-2 Activity
PROPERTY MEASURED: Ki

[
  {
    "COMPOUND": "CCCCCCC(N[C@H](CCc1ccccc1)C(=O)O)C(=O)O (stereo partly drawn)",
    "REPORTED VALUE": "> 500 nM"
  },
  {
    "COMPOUND": "CC(C)CC(N[C@@H](Cc1csc(-c2ccccc2)n1)C(=O)O)C(=O)O (stereo in doubt)",
    "REPORTED VALUE": "> 500 nM"
  },
  {
    "COMPOUND": "CC(C)CC(NCCc1c[nH]cn1)C(=O)O (stereo not drawn)",
    "REPORTED VALUE": "> 500 nM"
  },
  {
    "COMPOUND": "CC(NC(Cc1cccs1)C(=O)O)C(=O)O (stereo not drawn)",
    "REPORTED VALUE": "> 500 nM"
  },
  {
    "COMPOUND": "CC(N[C@@H](Cc1c[nH]cn1)C(=O)O)C(=O)O (stereo partly drawn)",
    "REPORTED VALUE": "> 500 nM"
  }
]

The observed Ki for CCC(NC(Cc1cccs1)C(=O)O)C(=O)O (stereo not drawn) when tested with ACE-2 (Homo sapiens, UniProt Q9BYF1) stands at > 500 nM

###

biological target: ACE-2 (Homo sapiens, UniProt Q9BYF1); construct: a stop codon inserted after the serine immediately preceding the transmembrane domain; made in house; host or cells: CHO K1 cells (transient transfection, purified from conditioned medium); test: ACE-2 Competitive Substrate Assay (ACS Assay); type: biochemical; settings: Ki class per key; compounds tested in 5% DMSO, 12 compound concentrations, 25° C.; Ki=Kiapp/(1+[S]/Km); read-out: Human ACE-2 Activity
PROPERTY MEASURED: Ki

Below are worked cases with known answers.
[
  {
    "MOLECULE": "CC(C)C[C@H](N[C@@H](Cc1ccc(OCC2COc3ccc(F)cc32)cc1)C(=O)O)C(=O)O (stereo partly shown)",
    "PROPERTY MEASURED": "Ki",
    "REPORTED VALUE": "< 100 nM"
  },
  {
    "MOLECULE": "CC(C)C[C@H](N[C@@H](Cc1cccc(OCc2csc3ccc(Cl)cc23)c1)C(=O)O)C(=O)O",
    "PROPERTY MEASURED": "Ki",
    "REPORTED VALUE": "< 100 nM"
  },
  {
    "MOLECULE": "CC(C)C[C@H](N[C@@H](Cc1ccc(-c2ccccn2)cc1)C(=O)O)C(=O)O",
    "PROPERTY MEASURED": "Ki",
    "REPORTED VALUE": "< 100 nM"
  }
]

Query molecule follows.
Measured Ki, CC(C)C[C@H](N[C@@H](Cc1ccc(N(Cc2cc(F)cc(F)c2)Cc2cc(F)cc(F)c2)cc1)C(=O)O)C(=O)O : 100 to 500 nM

###

molecular target: ACE-2 (Homo sapiens); construct: a stop codon inserted after the serine immediately preceding the transmembrane domain; made in house; host or cells: CHO K1 cells (transient transfection, purified from conditioned medium); test: ACE-2 Competitive Substrate Assay (ACS Assay); type: biochemical; settings: Ki class; compounds tested in 5% DMSO, 12 compound concentrations, Ki=Kiapp/(1+[S]/Km); read-out: Human ACE-2 Activity
pKi: −log10 of the molar value.
PROPERTY MEASURED: pKi

Field: example entries. Status: answers known.
[
  {
    "COMPOUND": "CC(C)CC(N[C@@H](Cc1cncn1CCC1CCCCC1)C(=O)O)C(=O)O (single isomer, unassigned) [JJ]",
    "pKi": "< 6.30"
  },
  {
    "COMPOUND": "COc1cccc(C(=O)NCC[C@H](N[C@@H](CC(C)C)C(=O)O)C(=O)O)c1",
    "pKi": "< 6.30"
  },
  {
    "COMPOUND": "CC(C)CC(N[C@@H](Cc1cncn1Cc1ccc2c(c1)OCO2)C(=O)O)C(=O)O (single isomer, unassigned) [JF]",
    "pKi": "< 6.30"
  },
  {
    "COMPOUND": "Cc1ccc(-c2ccc(C[C@H](N[C@@H](CC(C)C)C(=O)O)C(=O)O)o2)cc1",
    "pKi": "6.30 to 7.00"
  },
  {
    "COMPOUND": "COc1cccc(C(=O)NC[C@H](N[C@@H](CC(C)C)C(=O)O)C(=O)O)c1",
    "pKi": "6.30 to 7.00"
  },
  {
    "COMPOUND": "CC(C)CC(N[C@@H](Cc1cncn1Cc1cccc(Cl)c1)C(=O)O)C(=O)O (single isomer, unassigned) [HD]",
    "pKi": "< 6.30"
  }
]

So, CC(C)CC(N[C@@H](Cc1csc(Cc2ccccc2)n1)C(=O)O)C(=O)O (single isomer, unassigned) ? Its pKi was < 6.30

What the record says about CC(C)C[C@H](N[C@@H](Cc1ccn(Cc2cc(Cl)cc(Cl)c2)n1)C(=O)O)C(=O)O : pKi is > 7.00

Entry CC(C)C[C@H](NC(=O)[C@@H](S)Cc1ccccc1)C(=O)O ; pKi = < 6.30

Documented pKi of CC(C)CC(N[C@@H](Cc1cncn1CCC1CCCCC1)C(=O)O)C(=O)O (single isomer, unassigned) [JI] : > 7.00

# pKi of CC(C)CC(N[C@@H](Cc1cncn1Cc1ccc([N+](=O)[O-])cc1)C(=O)O)C(=O)O (single isomer, unassigned) [ID] = < 6.30

// recorded pKi for CC(C)C[C@H](N[C@@H](Cc1cccc(-c2cc(Cl)cc(Cl)c2)c1)C(=O)O)C(=O)O : 6.30 to 7.00
